Where do these numbers come from? They come from patent US10947196B2.

Experiment: Rat pharmacokinetic studies
Type: in vivo, male SD rats
Conditions: male, SD, in vivo, PO 5 mg/kg
RECORDED_ENDPOINT: Tmax (min)
The response must be a number in min with no trailing unit.

Recorded result, "Cc1ncccc1[C@@H](O)CNC(C)(C)C" , Tmax: 15

###

Target: β2 adrenergic receptor (Homo sapiens (Human))
Sequence (P07550 whole entry, species assumed): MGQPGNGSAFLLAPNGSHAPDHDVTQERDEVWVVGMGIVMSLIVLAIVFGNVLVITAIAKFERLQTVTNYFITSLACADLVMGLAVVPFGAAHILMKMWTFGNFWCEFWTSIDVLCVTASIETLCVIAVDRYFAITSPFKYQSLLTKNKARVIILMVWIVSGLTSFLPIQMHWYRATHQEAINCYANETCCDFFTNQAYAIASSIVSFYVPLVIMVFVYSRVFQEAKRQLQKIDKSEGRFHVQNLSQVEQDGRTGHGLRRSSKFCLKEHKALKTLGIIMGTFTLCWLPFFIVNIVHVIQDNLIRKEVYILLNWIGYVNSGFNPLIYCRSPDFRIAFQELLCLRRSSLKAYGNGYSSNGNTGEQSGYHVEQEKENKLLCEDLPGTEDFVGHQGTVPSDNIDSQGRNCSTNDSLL
Experiment: cAMP Gs dynamic HTRF assay, β2 expressing CHO cells
Assay type: cell-based
Conditions: B2-AR; CHO-K cells; read-out: Average EC50 [Receptor subtype: B2-AR; Cell type: CHO-K]
pEC50: −log10 of the molar value.
Parameter pEC50: see the listing below.

SUBSTANCE_SMILES	pEC50
CC(C)(C)NC[C@H](O)c1cccc(-c2ccccc2F)n1	> 8.00

Recorded result, "CC(C)(C)NC[C@@H](O)c1cccc(-n2cccc2)n1" , pEC50: 7.00 to 8.00

Recorded result, "Cc1ccc([C@H](O)CNC(C)(C)C)nc1C(F)(F)F" , pEC50: 7.00 to 8.00

Recorded result, "CN(C)c1cccc([C@H](O)CNC(C)(C)C)n1" , pEC50: < 6.00

Recorded result, "CC(C)(C)NC[C@H](O)c1cccc(N2CCCC2)n1" , pEC50: > 8.00

###

Assay: Rat CNS exposure measurement (plasma, CSF, brain)
Type: in vivo, male SD rats
Settings: male, SD, brain, PO 5 mg/kg, read-out: Concentration, Brain
RECORDED_ENDPOINT: concentration at 1 h (ng/g)
The response must be a number in ng/g with no trailing unit.

Recorded result, CC(C)(C)NC[C@H](O)c1cccc(C#N)n1 [Compound 03-5] , concentration at 1 h: 497

###

Experiment: Rat CNS exposure measurement (plasma, CSF, brain)
Type: in vivo, male SD rats
Details: male, SD, CSF, iv, 1 mg/kg, IV 1 mg/kg, read-out: Concentration, CSF
RECORDED_ENDPOINT: concentration at 1 h
Form entry: enter the amount, then its unit.

Recorded result, "CC(C)(C)NC[C@H](O)c1cccc(C(F)(F)F)n1" , concentration at 1 h: 142 ng/mL

###

Assay: Mouse pharmacokinetic studies
Format: in vivo, male C57BL/6J mice
Conditions: male, C57BL/6J, in vivo, PO 5 mg/kg
RECORDED_ENDPOINT: Cmax (ng/mL)
The response must be a number in ng/mL with no trailing unit.

Recorded result, "Cc1ncccc1[C@@H](O)CNC(C)(C)C" , Cmax: 1750

###

Test: Rat pharmacokinetic studies
Type: in vivo, male SD rats
Details: male, SD, in vivo, IV 1 mg/kg, read-out: Vss—obs
Method: The rat pharmacokinetics studies of exemplary compounds 03-3, 03-5, and 03-115 were conducted with male SD rats. These rats were typically about 6-8 weeks old, weighing 200 g to 300 g. Animals were fasted overnight and free access to food 4 hours after dosing. A required volume of vehicle was added to reach the target concentration of the test article and vehicle component to prepare for the dosing. […] Samples were analyzed using LC-MS/MS. […]
RECORDED_ENDPOINT: Vd (L/kg)
The response must be a number in L/kg with no trailing unit.

Recorded result, "Cc1ncccc1[C@@H](O)CNC(C)(C)C" , Vd: 2.4

###

Test: Rat pharmacokinetic studies
Format: in vivo, male SD rats
Settings: male, SD, in vivo, PO 5 mg/kg
RECORDED_ENDPOINT: Cmax (µg/mL)
The response must be a number in µg/mL with no trailing unit.

Recorded result, Cc1ncccc1[C@@H](O)CNC(C)(C)C [Compound 03-115] , Cmax: 0.174

###

Target: UniProt P08588
Test: cAMP Gs dynamic HTRF assay, β1 expressing CHO cells
Format: cell-based
Conditions: B1-AR; CHO-K cells; read-out: Average EC50 [Receptor subtype: B1-AR; Cell type: CHO-K]
pEC50: −log10 of the molar value.
RECORDED_ENDPOINT: pEC50

Consider the worked cases shown below.
SUBSTANCE_SMILES	pEC50
CC(C)(C)NC[C@@H](O)c1ccc2ccccc2n1	6.00 to 7.00
CN(C)c1cccc([C@@H](O)CNC(C)(C)C)n1	7.00 to 8.00
Cc1cccc([C@@H](O)CNC(C)(C)C)n1	7.00 to 8.00
CC(C)NC[C@H](O)c1cccc(C(F)(F)F)n1	> 8.00

Recorded result, "CC(C)(C)NC[C@H](O)c1cccc(C(C)(F)F)n1" , pEC50: 7.00 to 8.00

###

Biological target: β1-adrenergic receptor (Homo sapiens (Human))
Sequence (P08588 whole entry, species assumed): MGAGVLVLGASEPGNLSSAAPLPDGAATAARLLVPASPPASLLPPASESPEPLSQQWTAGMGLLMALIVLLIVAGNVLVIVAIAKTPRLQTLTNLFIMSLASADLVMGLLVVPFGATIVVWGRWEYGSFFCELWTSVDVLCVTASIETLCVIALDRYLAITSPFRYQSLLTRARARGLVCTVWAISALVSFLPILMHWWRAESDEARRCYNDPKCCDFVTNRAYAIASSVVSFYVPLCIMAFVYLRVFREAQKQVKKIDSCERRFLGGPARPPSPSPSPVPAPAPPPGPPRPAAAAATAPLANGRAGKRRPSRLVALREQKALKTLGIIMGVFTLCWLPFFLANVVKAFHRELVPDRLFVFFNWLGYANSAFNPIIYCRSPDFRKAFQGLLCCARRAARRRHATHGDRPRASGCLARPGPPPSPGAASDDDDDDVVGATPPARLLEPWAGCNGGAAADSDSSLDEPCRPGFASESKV
Test: cAMP Gs dynamic HTRF assay, β1 expressing CHO cells
Format: cell-based
Settings: B1-AR; CHO-K1 (HitHunter)
RECORDED_ENDPOINT: Average pEC50 [Receptor subtype: B1-AR; Cell type: CHO-K1 (HitHunter)]

Consider the worked cases shown below.
MOLECULE	RESULT
CC(C)(C)NC[C@H](O)c1cccc(N2CC3CCCC3C2)n1 (stereo partly drawn)	C (C = <7-6)
COc1ccc(C[C@@H](C)NC[C@H](O)c2ccc(C3CC3)nc2C)cc1	B (B = 8-7)
CN(C)C(=O)c1cccc([C@@H](O)CNC(C)(C)C)n1	D (D < 6)
CC(C)(C)NC[C@H](O)c1cccc(C2CCC2)n1	A (A > 8)
Cc1ncccc1[C@@H](O)CNC(C)(C)C	C-D

Recorded result, "CC(C)(C)NC[C@H](O)c1cccc(-c2nnn[nH]2)n1" , Average pEC50 [Receptor subtype: B1-AR; Cell type: CHO-K1 (HitHunter)]: D (D < 6)

Recorded result, "O[C@@H](CNC1CCOCC1)c1cccc(C(F)(F)F)n1" , Average pEC50 [Receptor subtype: B1-AR; Cell type: CHO-K1 (HitHunter)]: D (D < 6)

Recorded result, "CC(C)(C)NC[C@H](O)c1cccc(-n2cccc2)n1" , Average pEC50 [Receptor subtype: B1-AR; Cell type: CHO-K1 (HitHunter)]: A (A > 8)

Recorded result, "CC(C)(C)NC[C@H](O)c1cccc(C(C)(F)F)n1" , Average pEC50 [Receptor subtype: B1-AR; Cell type: CHO-K1 (HitHunter)]: B (B = 8-7)

###

Biological target: β2 adrenergic receptors in human astrocytoma cells (1321N1) (Homo sapiens (Human), UniProt P07550)
Test: cAMP HTRF assay in human astrocytoma cells (1321N1)
Type: cell-based
Settings: Endogenous receptor; 1321N1 cells; read-out: Average pEC50 [Receptor subtype: Endogenous; Cell type: 1321N1] (converted)
RECORDED_ENDPOINT: EC50

Consider the worked cases shown below.
COMPOUND	EC50
Cc1ccc([C@@H](O)CNC(C)(C)C)nc1C#N	> 1000 nM
CC1(NC[C@H](O)c2cccc(C(F)(F)F)n2)CCC1	100 to 1000 nM
O[C@@H](CNC1CCC1)c1cccc(C(F)(F)F)n1	10 to 100 nM
CC(C)(C)NC[C@@H](O)c1ccnc(C#N)c1	100 to 1000 nM
CC(C)(C)NC[C@H](O)c1cccc(NC2CCC2)n1	< 10 nM

Recorded result, "Cc1cc([C@@H](O)CNC(C)(C)C)nc(C(F)(F)F)c1" , EC50: 100 to 1000 nM

Recorded result, "CC(C)(C)NC[C@H](O)c1cccc(C2CCC2)n1" , EC50: < 10 nM

Recorded result, "CC(C)(C)NC[C@H](O)c1cccnc1OC(F)(F)F" , EC50: 10 to 100 nM

Recorded result, "COc1ccc(C[C@@H](C)NC[C@H](O)c2cccc(C(F)(F)F)n2)cc1" , EC50: < 10 nM

Recorded result, "CC(C)(C)NC[C@H](O)c1cccc(C2CCCC2)n1" , EC50: < 10 nM

Recorded result, "Cc1ccc([C@H](O)CNC(C)(C)C)nc1C(F)(F)F" , EC50: 100 to 1000 nM

Recorded result, "COc1ccc(C[C@@H](C)NC[C@H](O)c2cccc(OC(F)(F)F)n2)cc1" , EC50: < 10 nM

Recorded result, "CC(C)(C)NC[C@H](O)c1cccc(-n2ccnn2)n1" , EC50: 10 to 100 nM

Recorded result, "CC(C)(C)NC[C@H](O)c1cccc(C(C)(C)C)n1" , EC50: < 10 nM

Recorded result, "CC(C)(C)NC[C@H](O)c1cccc(C2=CCCC2)n1" , EC50: < 10 nM

###

Target: B3-AR (Homo sapiens (Human))
Sequence (P13945 whole entry, species assumed): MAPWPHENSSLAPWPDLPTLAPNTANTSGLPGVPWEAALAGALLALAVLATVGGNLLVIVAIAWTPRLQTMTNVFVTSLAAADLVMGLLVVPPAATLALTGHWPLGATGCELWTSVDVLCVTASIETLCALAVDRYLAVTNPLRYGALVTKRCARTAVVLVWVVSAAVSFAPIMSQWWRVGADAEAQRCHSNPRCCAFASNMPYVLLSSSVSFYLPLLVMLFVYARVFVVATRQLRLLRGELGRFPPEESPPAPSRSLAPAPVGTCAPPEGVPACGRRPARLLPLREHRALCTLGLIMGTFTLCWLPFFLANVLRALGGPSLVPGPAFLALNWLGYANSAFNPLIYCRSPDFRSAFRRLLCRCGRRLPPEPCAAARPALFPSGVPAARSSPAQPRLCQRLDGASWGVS
Assay: cAMP potency assay, B3-AR expressing CHO-K1 cells
Assay type: cell-based
RECORDED_ENDPOINT: Average pEC50 [Receptor subtype: B3-AR; Cell type: CHO-K1]

SUBSTANCE_SMILES	RESULT
CC(C)(C)NC[C@H](O)c1cccc(C(F)F)n1	D (D < 6)
CC(C)NC[C@H](O)c1cccc(C2CC2)n1	D (D < 6)
CCOc1ncccc1[C@@H](O)CNC(C)(C)C	D (D < 6)
